# test-system: Vasopressin V2 receptor (Rattus norvegicus)
# assay: Effective dose was determined for Vasopressin V2 receptor antagonistic activity in vivo in anesthetized rats
# Assay type: functional, organism-based
Listing of recorded Effective dose by entry.

- test-smiles: "CCOc1ccc(C[C@H]2NC(=O)CC3(CCCCC3)SSC[C@H](C(=O)N3CCC[C@H]3C(=O)N[C@@H](CCCN=C(N)N)C(=O)NCC(N)=O)NC(=O)[C@@H](CC(N)=O)NC(=O)[C@H](C(C)C)NC(=O)[C@@H](Cc3ccccc3)NC2=O)cc1"
  test-system: "Vasopressin V2 receptor (Rattus norvegicus)"
  Effective dose / nM/kg: 1.1
- test-smiles: "CCOc1ccc(C[C@@H](NC(=O)CC23CC4CC(CC(C4)C2)C3)C(=O)N[C@@H](Cc2ccccc2)C(=O)N[C@H](C(=O)N[C@@H](CC(N)=O)C(=O)N[C@@H](CCCN)C(=O)N2CCC[C@@H]2C(=O)N[C@@H](CCCN=C(N)N)C(=O)N[C@@H](CCCN=C(N)N)C(N)=O)C(C)C)cc1"
  test-system: "Vasopressin V2 receptor (Rattus norvegicus)"
  Effective dose / nM/kg: 0.9

Every entry's value here was drawn from ChEMBL document CHEMBL1125129.
